The origin of these recorded values is patent US20230050380A1.

- Measured on: T1, full-length hCDCP1 with N-terminal c-Myc tag (expression vector GS01), on Ba/F3-hCDCP1 cells or … (human, UniProt Q9H5V8 30-836)
- T1 construct: also called human CDCP1; hCDCP1 forced expression cells
- T1 sequence: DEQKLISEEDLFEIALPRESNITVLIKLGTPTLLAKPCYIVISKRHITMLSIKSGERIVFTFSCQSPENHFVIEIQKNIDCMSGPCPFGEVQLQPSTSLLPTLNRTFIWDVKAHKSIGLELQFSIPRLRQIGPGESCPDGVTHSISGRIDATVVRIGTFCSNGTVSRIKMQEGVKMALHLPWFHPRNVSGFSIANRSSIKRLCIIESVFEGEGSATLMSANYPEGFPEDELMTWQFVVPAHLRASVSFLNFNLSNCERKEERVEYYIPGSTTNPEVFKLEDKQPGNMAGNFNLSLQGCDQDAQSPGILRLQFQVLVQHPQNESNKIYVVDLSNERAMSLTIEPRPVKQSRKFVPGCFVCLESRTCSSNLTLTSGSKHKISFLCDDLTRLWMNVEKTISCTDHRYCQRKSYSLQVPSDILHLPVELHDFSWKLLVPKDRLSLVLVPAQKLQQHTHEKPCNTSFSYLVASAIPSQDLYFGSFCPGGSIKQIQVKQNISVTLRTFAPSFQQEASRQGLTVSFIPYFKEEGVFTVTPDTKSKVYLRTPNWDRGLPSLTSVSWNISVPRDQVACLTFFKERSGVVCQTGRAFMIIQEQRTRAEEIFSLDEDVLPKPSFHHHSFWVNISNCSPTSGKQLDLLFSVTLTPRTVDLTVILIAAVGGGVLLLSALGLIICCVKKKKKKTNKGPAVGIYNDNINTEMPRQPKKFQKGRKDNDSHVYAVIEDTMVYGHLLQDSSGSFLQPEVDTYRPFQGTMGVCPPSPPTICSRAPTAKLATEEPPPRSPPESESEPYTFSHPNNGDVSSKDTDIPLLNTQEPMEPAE
- Measurement notes: flow cytometry on Ba/F3-hCDCP1 cells
Measured metric: binding result

binder="mh14A043HCori/LCori (antibody, human IgG1, kappa, V domains shown, mouse-human chimeric antibody, human IgG1/kappa constant regions; also called mh14A043HCori/LCori-biotin (biotinylated form)) VH: EVQLQESGAELVRPGALVKLSCKASGFNIKDYYMNWVKQRPEQGLEWIGWIDPENGNTIYDPKFQGKASITADTSSNTAYLQLSSLTSEDTAVYYCYGSSYRFTYWGQGTLVTVSS VL: QIVLIQSPALMSASPGEKVTMTCSASSSVSYMYWYQQKPRSSPKPWIYLTSNLASGVPARFSGSGSGTSYSLTISSMEAEDAATYYCQQWSSNPFTFGSGTKLEIKR" test_result=binds
binder="mh14A043HCv2/LCv1 (antibody, human IgG1, kappa, V domains shown, mouse-human chimeric antibody, human IgG1/kappa constant regions) VH: EVQLQESGAELVRPGALVKLSCKASGFNIKDYYMNWVKQRPEQGLEWIGWIDPENANTIYDPKFQGKASITADTSSNTAYLQLSSLTSEDTAVYYCYGSSYRFTYWGQGTLVTVSS VL: QIVLIQSPALMSASPGEKVTMTCSASSSVSYLYWYQQKPRSSPKPWIYLTSNLASGVPARFSGSGSGTSYSLTISSMEAEDAATYYCQQWSSNPFTFGSGTKLEIKR" test_result=binds
